molecular target: Nitric oxide synthase, inducible (Mus musculus); assay: Inhibition of iNOS induction in mouse RAW264.7 cells assessed as NO production
Sequence (P29477 whole entry): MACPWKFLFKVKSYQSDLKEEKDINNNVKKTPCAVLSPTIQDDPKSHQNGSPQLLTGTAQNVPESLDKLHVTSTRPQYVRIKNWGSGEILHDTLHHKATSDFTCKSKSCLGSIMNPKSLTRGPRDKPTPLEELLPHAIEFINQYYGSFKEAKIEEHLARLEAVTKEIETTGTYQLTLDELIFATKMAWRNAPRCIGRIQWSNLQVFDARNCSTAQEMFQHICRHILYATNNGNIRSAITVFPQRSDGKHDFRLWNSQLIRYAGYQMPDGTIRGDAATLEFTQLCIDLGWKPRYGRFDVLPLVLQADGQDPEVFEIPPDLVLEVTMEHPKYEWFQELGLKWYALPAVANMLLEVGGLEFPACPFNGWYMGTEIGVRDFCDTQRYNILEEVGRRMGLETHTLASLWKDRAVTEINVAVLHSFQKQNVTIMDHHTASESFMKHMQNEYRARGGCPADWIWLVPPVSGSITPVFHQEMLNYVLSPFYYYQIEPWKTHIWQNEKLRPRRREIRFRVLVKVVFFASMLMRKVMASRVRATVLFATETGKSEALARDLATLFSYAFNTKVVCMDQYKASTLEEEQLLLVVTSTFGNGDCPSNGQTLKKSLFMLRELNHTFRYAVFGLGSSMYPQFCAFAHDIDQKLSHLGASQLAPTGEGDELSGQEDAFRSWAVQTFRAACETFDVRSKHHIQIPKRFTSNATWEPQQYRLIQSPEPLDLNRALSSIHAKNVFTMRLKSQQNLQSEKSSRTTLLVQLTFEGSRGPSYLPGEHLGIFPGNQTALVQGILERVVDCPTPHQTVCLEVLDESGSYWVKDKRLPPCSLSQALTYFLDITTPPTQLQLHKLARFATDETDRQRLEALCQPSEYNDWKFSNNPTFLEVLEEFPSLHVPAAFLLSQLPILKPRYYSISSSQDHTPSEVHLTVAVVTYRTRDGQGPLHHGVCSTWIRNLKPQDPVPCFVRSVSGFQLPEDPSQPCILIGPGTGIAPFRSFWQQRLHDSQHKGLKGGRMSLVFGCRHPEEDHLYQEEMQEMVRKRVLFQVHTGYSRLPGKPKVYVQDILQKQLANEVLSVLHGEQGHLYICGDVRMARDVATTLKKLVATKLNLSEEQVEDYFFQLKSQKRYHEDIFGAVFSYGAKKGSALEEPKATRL
METRIC NAME: IC50 (µM)

# COMPOUND, IC50 (µM)
data = [
    ("Oc1ccc(C2CC(c3cccs3)=NN2c2ccc(C(F)(F)F)cc2)cc1 (stereo not given)", 2.4),
    ("Oc1ccc(C2CC(c3cccs3)=NN2c2ccc(Br)cc2)cc1 (stereo not given)", 3.4),
]

[a] CC(C)(C)C1=NN(c2cccc(Cl)c2)C(c2ccc(F)c(O)c2)C1 (stereo not given)
[b] COc1cc(C=CC(=O)CC(=O)C=Cc2ccc(O)c(OC)c2)ccc1O
[c] CC(C)(C)C1=NN(c2ccc(Cl)cc2)C(c2ccc(O)cc2)C1 (stereo not given)
Order the records by IC50, with each subsequent value no larger than the one before. Use the labels to give the requested order.
c, a, b
